# Tested on: CCRF-CEM leukemia
# method: NCI tumour cell line growth inhibition, 48 h
parameter.measured: TGI (µM)
Form entry: value (µM) — number only.

Tell me the measured TGI of C=CC1(c2ccc(-c3ccccc3)cc2)OCCO1 , please.
86.4

Tell me the measured TGI of CC12c3c4cccc3Oc3cc(N)cc(c31)Oc1cc(N)cc(c12)O4 , please.
3.74

Tell me the measured TGI of O=C1CCC/C=C\C[C@H]2C=CC(=O)/C2=C/C[C@H](CCc2cccc(C(F)(F)F)c2)O1 , please.
11.4

----------
# System: COLO 205 colon
# method: NCI tumour cell line growth inhibition, 48 h
parameter.measured: TGI (µM)
Form entry: value (µM) — number only.

Tell me the measured TGI of CCOC(=O)C(Br)(C(N)=O)C1(O)OC(c2ccccc2)=C(Br)C1=O (configuration not stated) , please.
30.7

Tell me the measured TGI of CCCC(=O)OCC1OC(n2cnc3c(=S)nc(N)[nH]c32)C(OC(=O)CCC)C1OC(=O)CCC (configuration not stated) , please.
14.6

Tell me the measured TGI of CCc1ccccc1NC(=O)C1=C(C)NC(C)=C(C(=O)Nc2c(CC)cccc2CC)C1c1ccc2c(c1)OCO2 (configuration not stated) , please.
44.1

Tell me the measured TGI of Cc1c(-c2c(C)c(=O)c3c(C(C)C)c(=O)c(=O)c(C=O)c-3c2=O)c(O)c2c(C=O)c(O)c(O)c(C(C)C)c2c1O , please.
11.8

Tell me the measured TGI of CC1NOC(=O)C1N=Nc1ccccc1Br (configuration not stated) , please.
35.7

Tell me the measured TGI of NCCNC1=CC(=O)c2nc3ccccc3c3ccnc1c23 , please.
29

Tell me the measured TGI of Cc1ccc(C(=O)CC(O)(C(F)(F)F)C(F)(F)F)cc1[N+](=O)[O-] , please.
36.5

Tell me the measured TGI of CC(C)CC(NC(=O)C(Cc1ccccc1)NC(=O)[C@H]1CC[C@H](NC(=O)C(Cc2ccc(OC(C)(C)C)cc2)NC(=O)OC(C)(C)C)C1)C(N)=O (some centres not stated) , please.
35.8

Tell me the measured TGI of Clc1ccccc1CN1COc2c(cc(Cl)c3cccnc23)C1 , please.
43.2

Tell me the measured TGI of Cc1ccc(C2C3Cc4ccccc4C3=NN2c2ccc(S(=O)(=O)NC(=O)NC3CCCCC3)cc2)cc1 (configuration not stated) , please.
33.1

Tell me the measured TGI of N#CCC(=O)N1CCCOCCC1 , please.
42.2

Tell me the measured TGI of O=C(O)/C=C\C(=O)c1ccc(Cl)cc1 , please.
34.9

Tell me the measured TGI of C=Cc1c(C)c(O)cc2c1-c1ccc(O)c(C)c1CC2 , please.
41.8

Tell me the measured TGI of CC(C)N(Cc1c(F)cccc1F)c1ccc(CO)c(Cl)c1 , please.
3.02

Tell me the measured TGI of N#CC1=C(N)OC2=C(CCCc3ccccc32)C1c1ccc([N+](=O)[O-])cc1 (configuration not stated) , please.
31.7

Tell me the measured TGI of S=c1ssnc1-c1ccccn1 , please.
17.8

Tell me the measured TGI of O=P1(N(CCCl)CCCl)Oc2ccc(Cl)cc2Sc2c(ccc(Cl)c2Cl)O1 (configuration not stated) , please.
23
